molecular target: T1, human LTBR on cells (human, UniProt P36941 31-435); assay: FACS CHO-huLTBR, 20 µg/ml
T1 construct: also called recombinant human LTBR CHO cells; CHO-K1 cells overexpressing human LTBR
measuredAttribute: MFI (MFI)
Just the number in MFI, nothing appended.

Notebook: P1AE9457 (antibody, human IgG1, kappa, L234A L235A, V domains shown, human IgG1 PG LALA; from transgenic rabbit immunization; also called LTBR (9457)) VH: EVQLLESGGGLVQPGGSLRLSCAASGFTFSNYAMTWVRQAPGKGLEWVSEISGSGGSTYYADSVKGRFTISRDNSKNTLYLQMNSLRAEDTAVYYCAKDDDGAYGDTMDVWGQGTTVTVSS VL: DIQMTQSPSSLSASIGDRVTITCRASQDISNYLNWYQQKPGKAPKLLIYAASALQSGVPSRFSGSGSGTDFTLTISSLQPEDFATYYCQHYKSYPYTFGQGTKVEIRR , MFI read as 87000

Notebook: P1AF0080 (antibody, human IgG1, kappa, L234A L235A, V domains shown, human IgG1 PG LALA; from transgenic rabbit immunization; also called LTBR (0080)) VH: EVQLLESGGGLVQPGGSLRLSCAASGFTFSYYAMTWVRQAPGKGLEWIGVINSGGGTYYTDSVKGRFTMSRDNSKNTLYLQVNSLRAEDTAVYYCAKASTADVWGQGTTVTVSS VL: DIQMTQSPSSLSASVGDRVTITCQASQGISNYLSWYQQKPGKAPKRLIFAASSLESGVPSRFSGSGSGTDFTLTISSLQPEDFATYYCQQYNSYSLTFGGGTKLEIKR , MFI read as 107000

Notebook: P1AE9459 (antibody, human IgG1, kappa, L234A L235A, V domains shown, human IgG1 PG LALA; from transgenic rabbit immunization) VH: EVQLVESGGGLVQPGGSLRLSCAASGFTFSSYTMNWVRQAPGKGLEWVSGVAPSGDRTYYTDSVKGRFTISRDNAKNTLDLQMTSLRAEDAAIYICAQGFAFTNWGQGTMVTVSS VL: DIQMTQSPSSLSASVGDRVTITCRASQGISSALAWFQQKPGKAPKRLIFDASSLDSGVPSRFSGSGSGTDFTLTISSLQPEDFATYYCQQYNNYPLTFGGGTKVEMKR , MFI read as 62000

Notebook: P1AF0079 (antibody, human IgG1, kappa, L234A L235A, V domains shown, human IgG1 PG LALA; from transgenic rabbit immunization; also called LTBR (0079)) VH: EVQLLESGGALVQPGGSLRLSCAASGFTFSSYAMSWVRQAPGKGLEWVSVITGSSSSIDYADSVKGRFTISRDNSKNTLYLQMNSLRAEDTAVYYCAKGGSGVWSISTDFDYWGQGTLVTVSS VL: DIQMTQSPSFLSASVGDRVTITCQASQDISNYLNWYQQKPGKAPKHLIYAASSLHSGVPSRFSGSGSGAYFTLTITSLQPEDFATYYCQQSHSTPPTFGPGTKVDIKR , MFI read as 63600
